# Target: mouse SMO^W535L (Mus musculus, UniProt P56726, W539L)
# Construct: expressed in transfected cells
# Sequence (P56726 33-793 W539L): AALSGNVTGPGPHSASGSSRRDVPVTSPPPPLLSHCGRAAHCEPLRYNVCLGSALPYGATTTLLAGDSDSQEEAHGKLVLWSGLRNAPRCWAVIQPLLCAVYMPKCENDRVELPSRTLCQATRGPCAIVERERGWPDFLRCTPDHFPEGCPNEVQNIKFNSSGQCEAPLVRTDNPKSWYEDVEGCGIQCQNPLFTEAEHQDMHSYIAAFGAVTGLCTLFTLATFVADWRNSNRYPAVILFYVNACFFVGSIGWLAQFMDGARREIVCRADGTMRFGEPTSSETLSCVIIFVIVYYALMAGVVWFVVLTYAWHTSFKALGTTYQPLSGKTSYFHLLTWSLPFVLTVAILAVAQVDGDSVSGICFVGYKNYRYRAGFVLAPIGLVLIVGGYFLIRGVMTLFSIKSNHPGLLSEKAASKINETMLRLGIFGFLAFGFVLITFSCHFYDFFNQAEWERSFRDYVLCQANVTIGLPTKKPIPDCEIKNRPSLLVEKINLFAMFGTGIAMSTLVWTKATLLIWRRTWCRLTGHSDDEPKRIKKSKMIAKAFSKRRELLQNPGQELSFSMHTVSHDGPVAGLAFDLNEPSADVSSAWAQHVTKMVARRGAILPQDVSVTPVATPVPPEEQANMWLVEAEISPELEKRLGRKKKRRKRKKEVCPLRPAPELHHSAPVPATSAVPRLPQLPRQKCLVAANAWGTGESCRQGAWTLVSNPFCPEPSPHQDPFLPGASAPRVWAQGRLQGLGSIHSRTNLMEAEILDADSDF
# Experiment: Mouse assay: Gli1 qPCR in MEF cells stably expressing mouse SMO W535L
# Format: cell-based
# Stated Conditions: mSHh-treated, 24 hours, Gli1 inhibition by qPCR, read-out: Mouse W535L pIC50 (converted)
Measure Name: IC50 (nM)

Compound: CC(C)c1noc(-c2ccc(NC(=O)c3cccc(CN4CCS(=O)(=O)CC4)c3)cc2)n1
Target: mouse SMO^W535L (Mus musculus, UniProt P56726, W539L)
Measure Name: IC50
Reading Unit: nM
Recorded Result: 63.1
//
Compound: Cl.O=C(Nc1ccc(-c2nc(C3CC3)no2)cc1)c1cccc(CN2CCS(=O)(=O)CC2)c1
Target: mouse SMO^W535L (Mus musculus, UniProt P56726, W539L)
Measure Name: IC50
Reading Unit: nM
Recorded Result: 158
//
Compound: Cn1nc(-c2ccc(NC(=O)c3cccc(CN4CCS(=O)(=O)CC4)c3)nc2)cc1C1CC1
Target: mouse SMO^W535L (Mus musculus, UniProt P56726, W539L)
Measure Name: IC50
Reading Unit: nM
Recorded Result: 631
//
Compound: O=C(Nc1ccc(-c2nc(Cc3ccc(Br)cc3)n[nH]2)cc1)c1cccc(CN2CCS(=O)(=O)CC2)c1
Target: mouse SMO^W535L (Mus musculus, UniProt P56726, W539L)
Measure Name: IC50
Reading Unit: nM
Recorded Result: 39.8
//
Compound: O=C(Nc1ccc(-c2nc(C3CCCC3)n[nH]2)cc1)c1cccc(CN2CCS(=O)(=O)CC2)c1
Target: mouse SMO^W535L (Mus musculus, UniProt P56726, W539L)
Measure Name: IC50
Reading Unit: nM
Recorded Result: 15.8
//
Compound: O=C(Nc1ccc(-c2nc(Cc3ccc(F)cc3)n[nH]2)cc1)c1cccc(CN2CCS(=O)(=O)CC2)c1
Target: mouse SMO^W535L (Mus musculus, UniProt P56726, W539L)
Measure Name: IC50
Reading Unit: nM
Recorded Result: 501
//
Compound: O=C(Nc1ccc(-c2nc(C3CCN(c4ccccc4)C3)n[nH]2)cc1)c1cccc(CN2CCS(=O)(=O)CC2)c1 (stereo not shown)
Target: mouse SMO^W535L (Mus musculus, UniProt P56726, W539L)
Measure Name: IC50
Reading Unit: nM
Recorded Result: 100
//
Compound: O=C(Nc1ccc(-c2nc(C3CCCN(Cc4ccccc4)C3)n[nH]2)cc1)c1cccc(CN2CCS(=O)(=O)CC2)c1 (stereo not shown)
Target: mouse SMO^W535L (Mus musculus, UniProt P56726, W539L)
Measure Name: IC50
Reading Unit: nM
Recorded Result: 63.1
//
Compound: O=C(Nc1ccc(-c2noc(C3CCC3)n2)cc1)c1cccc(CN2CCS(=O)(=O)CC2)c1
Target: mouse SMO^W535L (Mus musculus, UniProt P56726, W539L)
Measure Name: IC50
Reading Unit: nM
Recorded Result: 501
//
Compound: O=C(Nc1ccc(-c2nc(-c3cccc(Cl)c3)n[nH]2)cc1)c1cccc(CN2CCS(=O)(=O)CC2)c1
Target: mouse SMO^W535L (Mus musculus, UniProt P56726, W539L)
Measure Name: IC50
Reading Unit: nM
Recorded Result: 501
